Data origin, for the record: patent US5563142A

Test system: HIV in primary human peripheral blood lymphocytes
experimental.protocol: Primary PBL assay: inhibition of viral replication (p24 & RNA)
Format: cell-based
condition.context: Human immunodeficiency virus 1, Lymphocyte, primary human lymphocytes infected with HIV, days three and four, read-out: PBL INHIBITION OF VIRAL REPLICATION (p24 & RNA) ED50
measured.property: EC50

Give the measured EC50 for O=C(c1cc2cc(F)ccc2[nH]1)N1CCN(c2ncccc2NCC(F)(F)F)CC1
< 10 µM

Further cases:
Give the measured EC50 for CCNc1cccnc1N1CCN(Cc2cc(C)c(OC)c(C)c2)CC1
1 µM

Give the measured EC50 for O=C(c1cc2ccccc2[nH]1)N1CCN(c2ncccc2N2CCCC2)CC1
0.1 to 1 µM

Give the measured EC50 for COCC(C)Nc1cccnc1N1CCN(C(=O)c2cc3cc(F)ccc3[nH]2)CC1 (stereo not drawn)
≤ 0.001 µM

Give the measured EC50 for CC(=O)Nc1ccc2[nH]c(C(=O)N3CCN(c4ncccc4NC(C)C)CC3)cc2c1
0.01 µM

###

Listed here are compounds together with their documented EC50.
Test system: HIV in primary human peripheral blood lymphocytes
experimental.protocol: Primary PBL assay: inhibition of viral replication (p24 & RNA)
Type: cell-based
condition.context: Human immunodeficiency virus 1, Lymphocyte, primary human lymphocytes infected with HIV, days three and four, read-out: PBL INHIBITION OF VIRAL REPLICATION (p24 & RNA) ED50
Counter-ions that a name gives are not always drawn.

Give the measured EC50 for CC(C)Nc1cccnc1N1CCN(C(=O)c2cc3cc(OCc4ccccc4)ccc3[nH]2)CC1
10 nM

Give the measured EC50 for CC(C)Nc1cccnc1N1CCN(C(=O)c2cc3ccccc3[nH]2)CC1
≤ 10 nM

Give the measured EC50 for CCNc1cccnc1N1CCN(C(=O)c2cc3cc(O)ccc3[nH]2)CC1
100 nM

Give the measured EC50 for CC(C)Nc1cccnc1N1CCCN(C(=O)c2cc3cc(F)ccc3[nH]2)CC1
< 1 nM

Give the measured EC50 for COc1ccc2[nH]c(C(=O)N3CCN(c4ncccc4NC(C)(C)C)CC3)cc2c1 [Example 45, hydrochloride salt]
10 to 100 nM

Give the measured EC50 for CC(C)Nc1cccnc1N1CCN(C(=O)c2cc3ccc(F)cc3[nH]2)CC1
1 to 10 nM

Further cases:
Give the measured EC50 for CC(C)Nc1cccnc1N1CCN(C(=O)c2cc3cc(NC(=O)CN)ccc3[nH]2)CC1 [Example 86, hydrochloride]
1 to 10 nM

Give the measured EC50 for COc1cc2[nH]c(C(=O)N3CCN(c4ncccc4NC(C)C)CC3)cc2cc1Br
10 to 100 nM

Give the measured EC50 for O=C(c1cc2ccccc2[nH]1)N1CCN(c2ncccc2NC2CCCC2)CC1
100 to 1000 nM

Give the measured EC50 for COc1cccc2[nH]c(C(=O)N3CCN(c4ncccc4NC(C)C)CC3)cc12
100 nM

Give the measured EC50 for CC(C)Nc1cccnc1N(C)CCCCCCN(C)C(=O)c1cc2ccccc2[nH]1
100 nM

Give the measured EC50 for CCNc1ccccc1N1CCN(C(=O)c2cc3ccccc3[nH]2)CC1
100 to 1000 nM

Give the measured EC50 for Cc1c(C(=O)N2CCN(c3ncccc3NC(C)C)CC2)[nH]c2ccccc12
< 1 nM

Give the measured EC50 for CC(C)Nc1cccnc1N1CCN(C(=O)c2cc3cc([N+](=O)[O-])ccc3[nH]2)CC1
< 10 nM

Give the measured EC50 for COc1cc2[nH]c(C(=O)N3CCN(c4ncccc4NC(C)C)CC3)cc2cc1F
100 nM

Give the measured EC50 for CCOc1ccccc1N1CCN(C(=O)c2cc3cc(OC)ccc3[nH]2)CC1
5000 to 10000 nM
